- ASSAY_PROCEDURE: Dissociation constant, pKa of the compound in MeOH/H2O at pH 2 to 11
- Format: physicochemical
OBSERVED_PROPERTY: pKa

MOLECULE: O=C(Nc1ccc(C#Cc2ccc(NC(=O)[C@@H]3CCCN3C(=O)C(c3ccccc3)N3CCC(O)CC3)cc2)cc1)[C@@H]1CCCN1C(=O)C(c1ccccc1)N1CCC(O)CC1 (stereo in doubt; 5g.1)
REPORTED_RESULT: 6.8

MOLECULE: O=C(Nc1ccc(C#Cc2ccc(NC(=O)[C@@H]3CCCN3C(=O)[C@@H](c3ccccc3)N3CCCC3)cc2)cc1)[C@@H]1CCCN1C(=O)[C@@H](c1ccccc1)N1CCCC1
REPORTED_RESULT: 8.1

MOLECULE: O=C1CN(C(C(=O)N2CCC[C@H]2C(=O)Nc2ccc(C#Cc3ccc(NC(=O)[C@@H]4CCCN4C(=O)C(c4ccccc4)N4CCNC(=O)C4)cc3)cc2)c2ccccc2)CCN1 (some centres undefined)
REPORTED_RESULT: 2.5

MOLECULE: O=C(Nc1ccc(C#Cc2ccc(NC(=O)[C@@H]3CCCN3C(=O)[C@@H](c3ccccc3)N3CCOCC3)cc2)cc1)[C@@H]1CCCN1C(=O)[C@@H](c1ccccc1)N1CCOCC1
REPORTED_RESULT: 4.6
